Test: chemical genetic growth profiling, strain panel (AID 1159580);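 further: tested at 20 µM; growth read once vehicle control cultures reached saturation at 30 °C; 1 = growth at the plate median or of vehicle wells; lower values mean less growth of the strain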
Settings: S. cerevisiae deletion strains, growth OD, locus YGL086W, strain mad1
Hit rate of the full screen: of about 5,500 compounds, about 2,000 (36%) were called active. Inconclusive results (about 18%) are left out. No stated cut-off is given here; in the data, active means normalized growth mostly below about 0.91 (no sharp cut-off); inconclusive means no clear call, values can overlap the other calls; inactive means mostly above about 0.92. The list shows a part of the results.
Labels: 1 for active, -1 for inactive

compound=CCCc1ncc(C[n+]2ccccc2C)c(N)n1 label_class=-1
compound=O=C(/C=C/c1ccc(O)cc1)c1ccc(O)cc1O label_class=-1
compound=Cn1cnc2c1c(=O)[nH]c(=O)n2C label_class=-1
compound=CN1C(=O)CC[C@H]1c1cccnc1 label_class=-1
compound="CN1CCCCC1c1ccc(-c2cccnc2)nc1 (stereo not given)" label_class=-1
compound=O=c1c(O)cccc2cc(O)c(O)c(O)c12 label_class=1
compound=COc1cc2cccc(OC)c(=O)c2c(OC)c1OC label_class=-1
compound=O=C(CCc1ccc(O)cc1)c1c(O)cc(O)cc1O label_class=-1
compound=CC(C)=CCC/C(C)=C/CO label_class=-1
compound=Cn1c(=O)c2c(ncn2CCO)n(C)c1=O label_class=-1
compound=CN(C)CCC[C@@]1(c2ccc(F)cc2)OCc2cc(C#N)ccc21 label_class=-1
compound=COc1ccc(CC(=O)c2ccc(O)cc2O)cc1 label_class=1
compound=Cc1cc(O)c2c(c1)C(=O)c1cc(O)cc(O)c1C2=O label_class=1
compound=CC(=O)Nc1c(I)cc(I)c(C(=O)O)c1I label_class=-1
compound=CNC(=O)Oc1ccccc1OC(C)C label_class=-1
compound="O=C1C(=O)c2ccccc2C(O)=C1C1CCC(c2ccc(Cl)cc2)CC1 (stereo not given)" label_class=-1
compound="COC(=O)C(O)[C@H]1C(C)(C)[C@@H](OC(C)=O)[C@@H]2CC3=C4CC(=O)O[C@@H](c5ccoc5)[C@]4(C)CCC3[C@@]1(C)C2=O (stereo not given in full)" label_class=-1
compound=CC(C)Cn1c(=O)n(C)c(=O)c2[nH]cnc21 label_class=-1
compound=COc1cc(O)c2c(c1)C(=O)c1cc(C)cc(O)c1C2=O label_class=-1
compound="C[N+]12CCC(CC1)C(OC(=O)C(O)(c1ccccc1)c1ccccc1)C2 (stereo not given)" label_class=-1
compound=Cn1c(=O)[nH]c2ncn(C)c2c1=O label_class=-1
compound=O=C(/C=C/c1ccccc1)c1c(O)cc(O)cc1O label_class=-1
compound=COC(=O)c1cc(OC)c(=O)c2c(OC)c(OC)ccc2c1 label_class=-1
compound="C=C(C)C1Cc2c(ccc(C(=O)O)c2O)O1 (stereo not given)" label_class=-1
compound=OC[C@H]1O[C@@H](Oc2ccc(O)cc2)[C@H](O)[C@@H](O)[C@@H]1O label_class=-1

====

Assay: chemical genetic growth profiling, strain panel (AID 1159580);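 further: tested at 20 µM; growth read once vehicle control cultures reached saturation at 30 °C; 1 = growth at the plate median or of vehicle wells; lower values mean less growth of the strain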
Conditions: S. cerevisiae deletion strains, growth OD, locus YDR150W, strain NUM1
About 2,000 (36%) of roughly 5,500 compounds were called active. Not shown: some 18% with an inconclusive outcome. Rule as the data show it: active = normalized growth mostly below about 0.91 (no sharp cut-off); inconclusive = no clear call, values can overlap the other calls; inactive = mostly above about 0.92. The list shows a part of the results.
Labels: YES = active, NO = inactive

molecule=COc1ccccc1NC(=S)NCCc1ccc(OC)c(OC)c1 label_class=NO
molecule=COc1cc(O)c2c(c1)C(=O)c1cc(C)cc(O)c1C2=O label_class=NO
molecule="NC1CONC1=O (configuration not stated)" label_class=NO
molecule=N=C(N)SCc1c(F)cccc1Cl label_class=NO
molecule=CCCc1ccc(/C(C)=N\O)cc1 label_class=NO
molecule=O=C(O)c1ccccc1Sc1c(C(=O)O)cc([N+](=O)[O-])cc1[N+](=O)[O-] label_class=NO
molecule=COc1cc(O)ccc1C(C)=O label_class=NO
molecule=Cc1c(C)c(C)c(S(=O)(=O)Nc2ccccc2N)c(C)c1C label_class=NO
molecule=N#Cc1cc(I)c(C#N)c(I)c1 label_class=YES
molecule=O=[N+]([O-])c1cc(Cl)c(Sc2ccccc2)cc1Sc1ccccc1 label_class=NO
molecule=O[C@H]1[C@H](O)[C@@H](O)C2OC[C@H]1O2 label_class=NO
molecule=CNC(=O)N(C)c1nnc(C(C)(C)C)s1 label_class=NO
molecule="CCOC(=O)CCC(C#N)(c1ccc(Cl)cc1)N1CCOCC1 (configuration not stated)" label_class=NO
molecule=O=C1C=C(O)c2ccccc2C1=O label_class=NO
molecule="CN1CCCCC1c1ccc(-c2cccnc2)nc1 (configuration not stated)" label_class=NO
molecule=NC(=O)C1=C(O)C(=O)N(C2CCCCC2)C1 label_class=NO
molecule=Cn1nccc1NS(=O)(=O)c1ccc(C(C)(C)C)cc1 label_class=NO
molecule=O=C1c2ccccc2C(=O)c2ccccc21 label_class=NO
molecule=CNC(C)(C)Cc1ccccc1 label_class=NO
molecule=C/C(=N/O)c1ccn(S(=O)(=O)c2ccc(Cl)cc2)c1 label_class=NO
molecule=CC(=N/O)/C(C)=C/c1ccc(Cl)cc1 label_class=NO
molecule=Cc1cc(S(=O)(=O)NCCNc2nccc(C(F)(F)F)n2)c(C)cc1Cl label_class=NO
molecule=C/C(=N/O)c1ccc2c(c1)C(C)(C)CCC2(C)C label_class=NO
molecule=COc1cc(Cc2cnc(N)nc2N)cc(OC)c1OC label_class=NO
molecule="COC(=O)C(Cc1c[nH]c2ccccc12)NC(=O)c1c(Cl)cccc1Cl (configuration not stated)" label_class=NO
molecule=CC(=O)Nc1c(I)cc(I)c(C(=O)O)c1I label_class=NO
molecule="CCCCC/C=C\\CC(O)/C=C/c1cccc(CC(O)CCCCO)n1 (configuration not stated)" label_class=NO
